Below, each of the compounds is paired with its reported bioavailability value.
- Test protocol: Oral bioavailability in Sprague-Dawley rat at 1 to 2 mg/kg by HPLC-MS/MS analysis
- Assay type: ADME, organism-based
- Recorded conditions: in vivo
Endpoint name: bioavailability (%)

[
  {
    "Compound": "N#Cc1ccc(O[C@H]2CN(S(=O)(=O)c3ccc(Cl)cc3Cl)C[C@@]2(O)CN)cc1F (racemic)",
    "Endpoint name": "bioavailability",
    "Quantitative result": 24
  },
  {
    "Compound": "N#Cc1ccc(S(=O)(=O)[C@H]2CN(S(=O)(=O)c3ccc(Cl)cc3Cl)C[C@@]2(O)CO)cc1",
    "Endpoint name": "bioavailability",
    "Quantitative result": 100
  },
  {
    "Compound": "N#Cc1ccc(O[C@H]2CN(S(=O)(=O)c3ccccc3C#N)C[C@@]2(O)CO)cc1F",
    "Endpoint name": "bioavailability",
    "Quantitative result": 32
  },
  {
    "Compound": "N#Cc1ccc(O[C@H]2CN(S(=O)(=O)c3ccc(C(F)(F)F)nc3)C[C@@]2(O)CO)cc1F",
    "Endpoint name": "bioavailability",
    "Quantitative result": 100
  },
  {
    "Compound": "N#Cc1ccc(O[C@H]2CN(S(=O)(=O)c3ccc(Cl)cn3)C[C@@]2(O)CN)cc1F",
    "Endpoint name": "bioavailability",
    "Quantitative result": 26
  },
  {
    "Compound": "N#Cc1ccc(O[C@H]2CN(S(=O)(=O)c3ccc(C(F)(F)F)cc3)C[C@@]2(O)CO)cc1F",
    "Endpoint name": "bioavailability",
    "Quantitative result": 100
  },
  {
    "Compound": "N#Cc1ccc(O[C@H]2CN(S(=O)(=O)c3ccc(Cl)cc3Cl)CC2(O)CO)cc1F (single isomer, unassigned)",
    "Endpoint name": "bioavailability",
    "Quantitative result": 100
  },
  {
    "Compound": "N#Cc1ccc(O[C@H]2CN(S(=O)(=O)c3ccc(Cl)cn3)C[C@@]2(O)CO)cc1F",
    "Endpoint name": "bioavailability",
    "Quantitative result": 100
  },
  {
    "Compound": "N#Cc1ccc(O[C@H]2CN(S(=O)(=O)c3ccc(Cl)cc3)C[C@@]2(O)CO)cc1F",
    "Endpoint name": "bioavailability",
    "Quantitative result": 83
  }
]

====

- Test protocol: Protein binding in dog plasma assessed as unbound fraction
- Type: ADME, cell-free, Canis lupus familiaris
Endpoint name: fraction unbound

[
  {
    "Compound structure string": "N#Cc1ccc(O[C@H]2CN(S(=O)(=O)c3ccc(Cl)cn3)C[C@@]2(O)CO)cc1F",
    "Quantitative result": 0.34
  },
  {
    "Compound structure string": "N#Cc1ccc(O[C@H]2CN(S(=O)(=O)c3ccc(Cl)cn3)C[C@@]2(O)CN)cc1F",
    "Quantitative result": 0.32
  }
]

====

- Test protocol: Apparent permeability in dog MDCK cells
- Type: ADME, cell-based, Canis lupus familiaris
Below, each of the compounds is paired with its reported Papp value.

[
  {
    "Compound structure string": "N#Cc1ccc(O[C@H]2CN(S(=O)(=O)c3ccc(Cl)cn3)C[C@@]2(O)CO)cc1F",
    "Value unit": "×10⁻⁶ cm/s",
    "Papp": 0.22
  },
  {
    "Compound structure string": "N#Cc1ccc(O[C@H]2CN(S(=O)(=O)c3ccc(Cl)cn3)C[C@@]2(O)CN)cc1F",
    "Value unit": "×10⁻⁶ cm/s",
    "Papp": 0.08
  }
]

====

- Test protocol: Protein binding in rat plasma assessed as unbound fraction
- Assay type: ADME, cell-free
Below, each of the molecules is paired with its reported fraction unbound value.
Endpoint name: fraction unbound

[
  {
    "Compound structure string": "N#Cc1ccc(S(=O)(=O)[C@H]2CN(S(=O)(=O)c3ccc(Cl)cc3Cl)C[C@@]2(O)CO)cc1",
    "Result": 0.027
  },
  {
    "Compound structure string": "N#Cc1ccc(O[C@H]2CN(S(=O)(=O)c3ccc(Cl)cn3)C[C@@]2(O)CN)cc1F",
    "Result": 0.14
  },
  {
    "Compound structure string": "N#Cc1ccc(O[C@H]2CN(S(=O)(=O)c3ccc(C(F)(F)F)nc3)C[C@@]2(O)CO)cc1F",
    "Result": 0.147
  },
  {
    "Compound structure string": "N#Cc1ccc(O[C@H]2CN(S(=O)(=O)c3ccccc3C#N)C[C@@]2(O)CO)cc1F",
    "Result": 0.197
  },
  {
    "Compound structure string": "N#Cc1ccc(O[C@H]2CN(S(=O)(=O)c3ccc(Cl)cc3)C[C@@]2(O)CO)cc1F",
    "Result": 0.035
  }
]

====

- Measured target: Voltage-gated inwardly rectifying potassium channel KCNH2 (Homo sapiens)
- Sequence (Q12809 whole entry): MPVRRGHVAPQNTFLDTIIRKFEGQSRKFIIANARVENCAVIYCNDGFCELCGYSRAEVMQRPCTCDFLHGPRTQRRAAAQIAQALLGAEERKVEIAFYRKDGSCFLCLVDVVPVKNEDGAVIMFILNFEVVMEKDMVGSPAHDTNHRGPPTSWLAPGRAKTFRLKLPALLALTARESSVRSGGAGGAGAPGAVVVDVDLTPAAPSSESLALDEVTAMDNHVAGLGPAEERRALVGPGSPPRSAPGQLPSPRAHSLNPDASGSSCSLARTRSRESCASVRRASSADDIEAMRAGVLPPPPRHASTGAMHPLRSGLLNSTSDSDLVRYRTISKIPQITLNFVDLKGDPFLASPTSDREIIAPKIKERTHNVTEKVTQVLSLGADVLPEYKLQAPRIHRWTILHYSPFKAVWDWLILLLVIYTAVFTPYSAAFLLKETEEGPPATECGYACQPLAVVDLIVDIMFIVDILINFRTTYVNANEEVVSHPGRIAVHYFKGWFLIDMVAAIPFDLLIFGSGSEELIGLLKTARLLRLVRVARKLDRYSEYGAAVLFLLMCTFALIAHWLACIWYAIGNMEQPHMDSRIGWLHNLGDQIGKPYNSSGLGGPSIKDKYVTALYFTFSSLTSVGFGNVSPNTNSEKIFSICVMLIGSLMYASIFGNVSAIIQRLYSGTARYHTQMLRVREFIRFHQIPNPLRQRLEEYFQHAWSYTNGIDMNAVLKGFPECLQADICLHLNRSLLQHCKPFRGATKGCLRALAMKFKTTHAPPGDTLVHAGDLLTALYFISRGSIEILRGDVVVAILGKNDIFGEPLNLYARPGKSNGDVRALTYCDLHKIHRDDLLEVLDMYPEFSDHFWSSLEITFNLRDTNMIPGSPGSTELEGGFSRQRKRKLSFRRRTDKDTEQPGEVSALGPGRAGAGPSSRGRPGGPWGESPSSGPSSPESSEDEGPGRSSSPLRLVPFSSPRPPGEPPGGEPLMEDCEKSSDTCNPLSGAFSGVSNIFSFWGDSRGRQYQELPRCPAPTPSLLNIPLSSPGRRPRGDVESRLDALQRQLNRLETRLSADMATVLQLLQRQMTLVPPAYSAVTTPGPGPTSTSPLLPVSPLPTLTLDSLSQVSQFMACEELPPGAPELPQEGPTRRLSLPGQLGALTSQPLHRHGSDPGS
pIC50: −log10 of the molar value.
Endpoint name: pIC50

[
  {
    "Compound structure string": "N#Cc1ccc(O[C@H]2CN(S(=O)(=O)c3ccc(Cl)cn3)C[C@@]2(O)CN)cc1F",
    "Measured target": "Voltage-gated inwardly rectifying potassium channel KCNH2 (Homo sapiens)",
    "Endpoint name": "pIC50",
    "Quantitative result": 4.70
  }
]

====

- Test protocol: Oral bioavailability in Sprague-Dawley rat at 1 mg/kg by HPLC-MS/MS analysis
- Format: ADME, organism-based
- Recorded conditions: in vivo

[
  {
    "Compound structure string": "N#Cc1ccc(O[C@H]2CN(S(=O)(=O)c3ccc(Cl)cn3)C[C@@]2(O)CO)cc1F",
    "bioavailability": "100%"
  }
]

====

- Test protocol: Volume of distribution at steady state in dog
- Type: ADME, Canis lupus familiaris
- Recorded conditions: in vivo, read-out: Vdss
Below, each of the molecules is paired with its reported Vd value.

[
  {
    "Compound structure string": "N#Cc1ccc(O[C@H]2CN(S(=O)(=O)c3ccc(Cl)cn3)C[C@@]2(O)CO)cc1F",
    "Vd (L/kg)": 1.9
  },
  {
    "Compound structure string": "N#Cc1ccc(O[C@H]2CN(S(=O)(=O)c3ccc(Cl)cn3)C[C@@]2(O)CN)cc1F",
    "Vd (L/kg)": 5.9
  }
]
